The values you see were collected from patent US9221915.

molecular target: human ALK-1/Fc (human, UniProt P37023); test: SPR, bivalent
Some binders, each annotated with its measured Kd.
Reply numerically in nM, unit not repeated.

1) 1.14.2 (antibody, V domains shown) VH: QVQLQESGPGLVKPSETLSLTCTVSGGSVSSGDYYWNWIRQPPGKGLEWIGYIYYSGSTNYNPSLKSRVTISVDTSKNQFSLKLSSVTAADTAVYYCAREAVSAFDYWGQGTLVTVSS VL: EIVLTQSPGTLSLSPGERATLSCRASQSVSSTYLAWHQQKPGQAPRLLIYGVSSRASGVPDRFSGSGSGTDFTLTISRLEPEDFAVYYCQQYGSSPITFGQGTRLEIK: 0.076
2) 4.72.2 (antibody, V domains shown) VH: QVQLQESGPGLVKPSQTLSLTCTVSGGSISSGEYYWSWIRQHPGKGLEWIGYIFYSGSTYYNPSLKSRVTISLDTSKNQFSLKLSSVTAADTAVYYCARESTDGMDVWGQGTTVTVSS VL: EIVLTQSPGTLSLSPGERATLSCRASQSVSSSYLAWYQRKPGQAPRLLIYGVSSRATGIPDRFSGSGSGTDFTLTISRLEPEDFAVYYCQQYGSSMITFGQGTRLEIK: 0.073

Let's switch to this binder now.
Sample 1.183.2 (antibody, V domains shown) VH: QVQLQESGPGLVKPSETLSLTCTVSGGSISSYYWSWIRQPPGKGLEWIGYIYYSGSTNYNPSLKSRVTISVDTSKNQFSLKLSSVTAADTAVYYCAREDDSSGCPYFDYWGQGTLVTASS VL: EIVMTQSPATLSVSPGERATLSCRASQSVSSNLAWYQQKPGQAPRVLIYGASTRATGIPVRFSGSGSGTEFTLTISSLQSEDFAVYYCQQYNNWPFTFGPGTKVDIK ; Kd observed: 0.22
